Experimental parameters: Crystal; DTA
Kindly state Normal melting temperature for each of the entries shown.
One number for each entry, in °C.

Provide each entry's Normal melting temperature from the list below.
1. c1ccc2c(c1)[nH]c1ccccc12
2. CCn1c2c(c3c1CCCC3)CCCC2 [9-ethyl-2,3,4,5,6,7,8,9-octahydro-1H-carbazole]
3. CCn1c2c(c3ccccc31)CCCC2 [9-ethyl-2,3,4,9-tetrahydrocarbazole]
4. CCCn1c2ccccc2c2ccccc21
5. CC(C)n1c2ccccc2c2ccccc21

1: 244.0; 2: 43; 3: 9.2; 4: 47.2; 5: 120.8

###

For each of the compounds below, state its Molar enthalpy of transition or fusion.
Method description: Molar enthalpy of transition or fusion
Experimental parameters: Crystal; DSC
Give bare numbers, in kJ/mol.

// solved cases for Molar enthalpy of transition or fusion follow
{"columns": ["Compound", "Assay endpoint", "Scale unit", "Observed measurement"],
 "data": [
  ["CC(C)n1c2ccccc2c2ccccc21 [9-(1-methylethyl)carbazole]", "Molar enthalpy of transition or fusion", "kJ/mol", 18.3],
  ["CCn1c2c(c3ccccc31)CCCC2 [9-ethyl-2,3,4,9-tetrahydrocarbazole]", "Molar enthalpy of transition or fusion", "kJ/mol", 12.4],
  ["CCn1c2ccccc2c2ccccc21 [9-ethylcarbazole]", "Molar enthalpy of transition or fusion", "kJ/mol", 16.6]
]}

Give measured Molar enthalpy of transition or fusion for every item shown.
1. CCCn1c2ccccc2c2ccccc21 [N-propyl-9H-carbazole]
2. CCCCn1c2ccccc2c2ccccc21 [N-butyl-9H-carbazole]
3. c1ccc2c(c1)[nH]c1ccccc12 [9H-carbazole]
4. CCn1c2c(c3c1CCCC3)CCCC2 [9-ethyl-2,3,4,5,6,7,8,9-octahydro-1H-carbazole]

1: 19.6; 2: 22.8; 3: 27.7; 4: 20.6

Provide Molar enthalpy of transition or fusion for all items below, preserving their order.
1. Cn1c2ccccc2c2ccccc21 [9-methyl-9H-carbazole]
2. c1ccc2c3c([nH]c2c1)CCCC3 [2,3,4,9-tetrahydro-1H-carbazole]

16.4
17.9
